- tested on: T1, human serum albumin (human, UniProt P02768 25-609)
- T1 construct: also called HSA; HAS
- assay info: phage and periprep ELISA on HSA; purified 6xHis-tagged VNAR
- Protocol: The resultant mutational phage display libraries were rescued and selected twice using Nunc Maxisorp immunotubes. Following each pan, two 96-well plates of individual colonies were picked with a QPix2 XT (Genetix, San Jose, Calif., USA). Binding as monoclonal phage and periprep was evaluated by ELISA. All samples were processed with a Perkin Elmer MiniTrak robotic liquid handling system (Waltham, Mass., USA).
readout type: binding result

AH7 (VNAR, Variant of huE06 v1.10 from error-prone PCR) VNAR: TRVDQTPSSLSASVGDRVTITCVLTDTSYPLYSTYWYRKNPGSSNKEQISISGRYSESVNKGTKSSTLTISSLQPEDFATYYCRAMGTNIWTGDGAGTKVEIK; binds
BE4 (VNAR, Variant of huE06 v1.10 from error-prone PCR) VNAR: TRVDQSPSSLSASVGDRVTITCVLTDTSYSLYSTYWYRKNPGSSNKEQISISGRYSESVNKGTKSFTLTISSLQPEDFATYYCRAMGTNIWTGDGAGTKVEIK; binds
